- Test protocol: Acute toxicity (LD50, Behrens-Karber method)
- Assay type: in vivo, ICR mice
- Settings: mouse, in vivo, ip, mortality during 30 days
Observed property: LD50 at 720 h
Field: value (include unit after the number)

Q: Check the records and state LD50 at 720 h for CC(C)CN(C[C@H]1O[C@H](OCc2ccccc2)[C@H](O)[C@@H](O)[C@@H]1O)C(=O)N(CCCl)N=O
Result: 450 mg/kg

Q: Check the records and state LD50 at 720 h for CC(C)CO[C@H]1O[C@H](CN(Cc2ccco2)C(=O)N(CCCl)N=O)[C@@H](O)[C@H](O)[C@H]1O
Result: 555 mg/kg

Q: Check the records and state LD50 at 720 h for COCCN(C(=O)N(CCCl)N=O)C1C(O)C(CO)OC(OC2CCCCC2)C1O (stereo not shown)
Result: 690 mg/kg

Q: Check the records and state LD50 at 720 h for COCCCO[C@H]1O[C@H](CN(CC(C)C)C(=O)N(CCCl)N=O)[C@@H](O)[C@H](O)[C@H]1O
Result: 505 mg/kg
